The values you see were collected from ChEMBL document CHEMBL1153407.

System: P388
Experiment: Cytotoxicity against camptothecin-resistant mouse P388 cells after 4 days by MTT method
Assay type: functional, cell-based
Settings: P388, 96 h
Label Fulfilled when IC50 is strictly below 60 nM; otherwise label Not fulfilled.

Hello, is IC50 of the following compound strictly smaller than 60 nM? `COc1cc2c(CCN)cc3c4cc5c(cc4ncc3c2cc1OC)OCO5`
Not fulfilled

Hello, is IC50 of the following compound strictly smaller than 60 nM? `COc1cc2c(CCCN(C)C)cc3c4cc5c(cc4ncc3c2cc1OC)OCO5`
Not fulfilled

Hello, is IC50 of the following compound strictly smaller than 60 nM? `COc1cc2c(C=O)cc3c4cc5c(cc4ncc3c2cc1OC)OCO5`
Fulfilled

Hello, is IC50 of the following compound strictly smaller than 60 nM? `COc1cc2c(C(=O)NCCN(C)C)cc3c4cc5c(cc4ncc3c2cc1OC)OCO5`
Not fulfilled

Hello, is IC50 of the following compound strictly smaller than 60 nM? `COc1cc2c(CCCCN(C)C)cc3c4cc5c(cc4ncc3c2cc1OC)OCO5`
Not fulfilled

Hello, is IC50 of the following compound strictly smaller than 60 nM? COc1cc2c(C(O)CCCN(C)C)cc3c4cc5c(cc4ncc3c2cc1OC)OCO5 (centres undefined)
Not fulfilled

Hello, is IC50 of the following compound strictly smaller than 60 nM? `COc1cc2c(CC[N+](=O)[O-])cc3c4cc5c(cc4ncc3c2cc1OC)OCO5`
Not fulfilled

Hello, is IC50 of the following compound strictly smaller than 60 nM? `COc1cc2c(/C=C/[N+](=O)[O-])cc3c4cc5c(cc4ncc3c2cc1OC)OCO5`
Fulfilled

Hello, is IC50 of the following compound strictly smaller than 60 nM? `CNC(=O)c1cc2c3cc4c(cc3ncc2c2cc(OC)c(OC)cc12)OCO4`
Not fulfilled

Hello, is IC50 of the following compound strictly smaller than 60 nM? `COc1cc2c(CN(C)C)cc3c4cc5c(cc4ncc3c2cc1OC)OCO5`
Fulfilled

Hello, is IC50 of the following compound strictly smaller than 60 nM? `COc1cc2c(CNCCN(C)C)cc3c4cc5c(cc4ncc3c2cc1OC)OCO5`
Fulfilled

Hello, is IC50 of the following compound strictly smaller than 60 nM? `COc1cc2c(CCN(C)C)cc3c4cc5c(cc4ncc3c2cc1OC)OCO5`
Not fulfilled

Hello, is IC50 of the following compound strictly smaller than 60 nM? `COc1cc2c3cnc4cc5c(cc4c3c(=O)n(CCN(C)C)c2cc1OC)OCO5`
Fulfilled

Hello, is IC50 of the following compound strictly smaller than 60 nM? `COc1cc2c(C(=O)N(C)C)cc3c4cc5c(cc4ncc3c2cc1OC)OCO5`
Not fulfilled

Hello, is IC50 of the following compound strictly smaller than 60 nM? `COc1cc2c(C(N)=O)cc3c4cc5c(cc4ncc3c2cc1OC)OCO5`
Not fulfilled

Hello, is IC50 of the following compound strictly smaller than 60 nM? CC[C@@]1(O)C(=O)OCc2c1cc1n(c2=O)Cc2cc3ccccc3nc2-1 [CAMPTOTHECIN]
Not fulfilled

Hello, is IC50 of the following compound strictly smaller than 60 nM? `COc1cc2c(CO)cc3c4cc5c(cc4ncc3c2cc1OC)OCO5`
Fulfilled

Hello, is IC50 of the following compound strictly smaller than 60 nM? `COc1cc2c(/C=C/CN(C)C)cc3c4cc5c(cc4ncc3c2cc1OC)OCO5`
Fulfilled
